# EC50 of GLP-1 receptor mediated cAMP production per record follows
target.or.test.system: human GLP-1 receptor (human, UniProt P43220 24-463)
test.summary: cell-based or functional assay
Numbered stars: 1 amine (or outer) side, 2 acyl side, 3 side chain; on linkers, the order of the positions; unused ones are H or OH. Square brackets hold non-standard residues; d marks the D form. Side chains are listed from the residue outwards. Ends that are not written are not given here. * marks the point of attachment. OC17H32COOH = fatty diacid acyl group -OC17H32COOH on the linker; C20 diacid = O=C(O)CCCCCCCCCCCCCCCCCCC(=O)*; C18 diacid = O=C(O)CCCCCCCCCCCCCCCCC(=O)*; γGlu = O=C(O)[C@H](CCC(=O)[*:2])N[*:1]; Palmitoyl = CCCCCCCCCCCCCCCC(=O)*; AEEA = NCCOCCOCC(=O)O; Aib = CC(C)(N)C(=O)O
The answer is to be given in pM; state only the numeric part.

binder	reported.result
H[Aib]QGTFTSDYSKYLDEKRAK([γGlu-γGlu-Palmitoyl])EFIAWLEAGGPSSG-NH2 (not fully specified; printed as HAibQGTFTSDYSKYLDEKRAK*EFIAWLEAGGPSSG-Amid) [Compound 57]	94
H[Aib]QGTFTSDYSKYLDERKAK([AEEA-AEEA-γGlu-OC17H32COOH])EFIEWLEGGPSSG-NH2 (not fully specified; printed as HAibQGTFTSDYSKYLDERKAK**EFIEWLEGGPSSG-Amid) [Compound 66]	51
H[Aib]QGTFTSDYSKYLEERKAK([AEEA-AEEA-γGlu-C20 diacid])EFIAWLEGGPSSG-NH2 (not fully specified; printed as HAibQGTFTSDYSKYLEERKAK***EFIAWLEGGPSSG-Amid) [Compound 68]	130

Next up:
Fill in reported EC50 of GLP-1 receptor mediated cAMP production for this entry: H[Aib]QGTFTSDK([AEEA-AEEA-γGlu-C18 diacid])SKYLEERAAKEFIAWLEAGGPSSG-NH2 (not fully specified; printed as HAibQGTFTSDK**SKYLEERAAKEFIAWLEAGGPSSG-Amid) [Compound 27]
11
